- assayTarget: Prothrombin (Bos taurus)
Parameter: pIC50. Scope: all listed entries.
// scale note: pIC50 = -log10(conc_M); give the bare number

Here are 5 compounds together with their reported answers.
# input Any idea what pIC50 was measured for C=c1[nH]c2ccc(C)cc2c1=Cc1c(N)n2oc(C)cc2nc1=O ?
# output 4.49

# input Any idea what pIC50 was measured for CCN(CC)CCOC(=O)c1ccc(N=CC(C#N)c2nc(-c3ccc(OC)c(OC)c3)cs2)cc1 (stereo unspecified) ?
# output 4.54

# input Any idea what pIC50 was measured for CCOC(=O)C1C(=O)C(=Cc2ccc(-c3ccccc3C(=O)O)o2)SC1=Nc1ccc(OC)cc1 (stereo unspecified) ?
# output 4.88

# input Any idea what pIC50 was measured for O=C1C=CC([N+](=O)[O-])=CC1C=NN=C1NS(=O)(=O)c2ccccc21 (stereo unspecified) ?
# output 4.43

# input Any idea what pIC50 was measured for COc1cc(C=c2[nH]c3n(c2=O)CCCCC=3)ccc1O ?
# output 4.53

Continue with the next compound.
# input Any idea what pIC50 was measured for O=[N+]([O-])c1ccc(N=NCc2cccn2-c2ccccc2)nc1 ?
# output 4.53

###

# Prothrombin (Bos taurus): pIC50 values follow
// scale note: pIC50 = -log10(conc_M); give the bare number

# input Any idea what pIC50 was measured for C=C(C=C(C)c1sc(S)nc1O)c1sc(S)nc1O [MLS000723803] ?
# output 4.06

# input Any idea what pIC50 was measured for O=[N+]([O-])c1ccc(N=NCc2c[nH]c3ccccc23)cc1 [MLS000573812] ?
# output 5.69

# input Any idea what pIC50 was measured for C=CCN1C(=O)C(/C=N/c2cccc([N+](=O)[O-])c2)C(=O)N(CCCC)C1=O (stereo not given) [MLS000543529] ?
# output 4.37

# input Any idea what pIC50 was measured for CSc1nsc(CC=Nc2ccc(C(=O)O)cc2)c1C#N ?
# output 4.56

# input Any idea what pIC50 was measured for CC[n+]1c(CC=Nc2ccccc2)oc2ccc(OC)cc21 ?
# output 4.25

# input Any idea what pIC50 was measured for CC(c1sc(S)nc1O)c1sc(S)nc1O ?
# output 4.28

# input Any idea what pIC50 was measured for O=C1N=C(Nc2ccc(Cl)cc2Cl)SC1=Cc1c[nH]c2ccccc12 ?
# output 4.42

# input Any idea what pIC50 was measured for Cc1[nH]c2ccccc2c1/C=C1\N=C(c2ccccc2)OC1=O ?
# output 5.14

# input Any idea what pIC50 was measured for COc1cc(C=CC(=O)C2C(=O)NC(=O)N(CCc3ccccc3)C2=O)ccc1O (stereo not given) [SMR000221203] ?
# output 4.39

***
# input Any idea what pIC50 was measured for Cc1[nH]n(-c2ccccc2)c(=O)c1C=C1NC(=S)NC1=O ?
# output 4.28
